Attribution: PubChem BioAssay

Please go through the items and note down their inhibition.
assay: inhibitors of TNFa-induced NFkB p65 translocation, primary screen, imaging, HUVEC, MLSMR starter and 10KST1 sets (AID 438); details: HUVEC TNFa-induced p65 nuclear translocation; at 2 µM, stronger effect = higher value, 0% TNFa-plus-vehicle, 100% no-TNFa wells;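 further: compound added about 3h40 before a 20 min TNFalpha stimulation; signal is the nuclear over cytoplasmic p65 intensity ratio per well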
Answers are plain numbers, in %.

Reference set, count: 5
| compound | inhibition, % |
| --- | --- |
| COC(=O)c1ccc(-c2sc3nc(N4CCOCC4)c4c(c3c2N)CCCC4)o1 | -7.7 |
| COc1ccc2[nH]c(C)c(C(=O)CN3CC(C)OC(C)C3)c2c1 (stereo unspecified) | -0.3 |
| CN1C(=O)N(c2ccccc2)C(Nc2nncs2)C1(C)C (stereo unspecified) | 3.5 |
| COc1cc(C2C(C#N)=C(N)Oc3cc(C)n(CCN4CCOCC4)c(=O)c32)cc(OC)c1OC (stereo unspecified) | 4 |
| OCC(O)CN1CCN(c2ccccc2)CC1 (stereo unspecified) | -6.5 |

Read the next record carefully.
Documented inhibition of CCCCCCn1c(SCCN2CCOCC2)nc2c1c(=O)[nH]c(=O)n2C : -16.2
